pIC50: −log10 of the molar value.
Multi-source literature compilation: pIC50 on Lysine-specific histone demethylase 1A (Homo sapiens).
Measurement Type: pIC50

[[record]]
test_smiles = "COc1ccc(-c2c(C(N)=O)cc(N3CCC(N)CC3)nc2-c2ccc(C#N)c(F)c2)cc1F"
measurement_type = "pIC50"
test_result = 8.32

[[record]]
test_smiles = "Cc1noc(C)c1-c1ccc([C@@H]2C[C@H]2NCC2CCN(Cc3ccc(C(=O)Nc4ccccc4N)cc3)CC2)cc1"
measurement_type = "pIC50"
test_result = 8.22

[[record]]
test_smiles = "CC(C)(O)Cc1ccc(-c2c(C#N)cc(N3CCC(N)CC3)nc2-c2ccc(C#N)c(F)c2)c(F)c1"
measurement_type = "pIC50"
test_result = 8.51

[[record]]
test_smiles = "COc1ccc(-c2cnc(N3CCC(NCc4ccc(CCC(=O)NO)cc4Cl)CC3)c(C#N)c2-c2ccc(C#N)c(F)c2)cc1O"
measurement_type = "pIC50"
test_result = 10.52

[[record]]
test_smiles = "COc1ccc(-c2cnc(N3CCC(NCc4cnc(/C=C/C(=O)NO)s4)CC3)c(C#N)c2-c2ccc(C#N)c(F)c2)cc1O"
measurement_type = "pIC50"
test_result = 8.58

[[record]]
test_smiles = "COc1ccc(-c2c(C#N)cc(N3CCC4(CCNC4)CC3)nc2-c2ccc(C#N)c(F)c2)cc1F"
measurement_type = "pIC50"
test_result = 8.47

[[record]]
test_smiles = "COc1ncc(-c2cnc(N3CCC(NCc4ccc(/C=C/C(=O)NO)cc4)CC3)c(C#N)c2-c2ccc(C#N)c(F)c2)cc1O"
measurement_type = "pIC50"
test_result = 9.13


---

# IC50 against UniProt O60341, merged from multiple literature sources
Measurement Type: IC50 (nM)

[[record]]
compound = "COc1ccc(-c2cnc(N3CCC(NCc4ccc(CC(F)C(=O)NO)cc4)CC3)c(C#N)c2-c2ccc(C#N)c(F)c2)cc1O (stereo not shown)"
measurement_type = "IC50"
test_result = 0.21

[[record]]
compound = "Nc1ccccc1NC(=O)c1ccc(CCCN2CCC(CN[C@H]3C[C@@H]3c3cnn(-c4ccccc4)c3)CC2)cc1"
measurement_type = "IC50"
test_result = 6

[[record]]
compound = "COc1ccc(-c2cnc(N3CCC(NCc4ccc(/C=C/C(=O)NO)nc4)CC3)c(C#N)c2-c2ccc(C#N)c(F)c2)cc1O"
measurement_type = "IC50"
test_result = 0.36

[[record]]
compound = "O=C(NO)c1ccc(CCCN2CCC(CN[C@@H]3C[C@H]3c3ccc(-c4cncnc4)cc3)CC2)cc1"
measurement_type = "IC50"
test_result = 6

[[record]]
compound = "CN1C(=O)Cc2cc(-c3c(C#N)cc(N4CCC(N)CC4)nc3-c3ccc(C#N)c(F)c3)ccc21"
measurement_type = "IC50"
test_result = 1.5

[[record]]
compound = "COc1cc(-c2cnc(N3CC4CC3CC4NCc3ccc(/C=C/C(=O)NO)cc3)c(C#N)c2-c2ccc(C#N)c(F)c2)ccc1O (stereo not shown)"
measurement_type = "IC50"
test_result = 173

[[record]]
compound = "Cc1noc(C)c1-c1ccc([C@H]2C[C@@H]2NCC2CCN(Cc3ccc(C(=O)Nc4ccccc4N)cc3)CC2)cc1"
measurement_type = "IC50"
test_result = 29

